Sourced from patent US20250355001A1

Some molecules, each annotated with its measured Binding regions on hT40.
System: hT40, dGA, dGAE and truncated tau fragments
Assay: Binding ELISA / epitope mapping of anti-tau scAbs with truncated tau proteins and 13mer peptides
Design: species or system human
Conditions: Table 33; core binding scAbs tested in epitope occlusion assays

{"columns": ["molecule", "measurementLabel", "assayValue"],
 "data": [
  ["C-B3 (protein, left off: small tags and cut ends) scFv: QVQLQESGPSLVKPSQTLSLTCTVSGFSLSSVAVNWVRQAPGKVPEWLGGIISNGGTGYNPALKSRLSITRDTSKSQVSLALTHVTTEDTAVYYCGRGVEWEGSMDYLGPGLLVTVSSEGKSSGSGSETKVDDQSVLTQPSSVSGFLGQRVTITCSGSSSNVGAGSYVGWYQQVPGSGLRILIYGATKRASGLPDRFSGSRSGNTATLTISSLQAEDEADYYCVSYQTDFTLVFGSGTRLTVLG", "Binding regions on hT40", "360-390"]
]}

# input for lookup
Task item: Determine from records and report Binding regions on hT40 for C-E3 (protein, VHCDR1 ME12, NS3D9; VHCDR1 S1D2, S1H6, S2C3; VHCDR1 MC5, MD12; VHCDR1 3aA6, VHCDR1 CE3; VHCDR2 NS3D9, CE3; VHCDR3 NS3D9, CE3; VLCDR1 NS3D9, CE3; VLCDR2 NS3D9, CE3; VLCDR3 NS3D9, CE3) CDR 1: SNAVG CDR 2: GCSSDGKCYYNSALKS CDR 3: GYYPVYGYDYLGTIDY CDR 4: SGSSSNVGRNDVA CDR 5: GTTSRPS CDR 6: ASGDSSAINDI
Reply: 297-356
